Cited source for all entries: ChEMBL document CHEMBL1157539

test system: Plasmodium falciparum; assay: GSK_TCMDC: Inhibition of Plasmodium falciparum 3D7 in whole red blood cells, using parasite LDH activity as an index of growth. Test compounds present at 2uM; assay type: functional
EXPERIMENTAL READOUT: Inhibition (%)
Just the number in %, nothing appended.

INPUT: Kindly indicate its recorded Inhibition. Item: `N#Cc1ccc(C(=O)NC2CCN(CCCCCNC(=O)/C=C/c3ccc(Cl)c(Cl)c3)CC2)cc1`
OUTPUT: 98

INPUT: Kindly indicate its recorded Inhibition. Item: `Cl.Fc1cccc(COc2ccc(Nc3ncnc4ccc(-c5nnc(C(F)(F)F)o5)cc34)cc2Cl)c1`
OUTPUT: 100

INPUT: Kindly indicate its recorded Inhibition. Item: OC(CNCc1ccccc1)c1cc(OCc2ccccc2)cc(OCc2ccccc2)c1 (stereo unspecified)
OUTPUT: 98

INPUT: Kindly indicate its recorded Inhibition. Item: `CC(=O)Nc1ncc(C(=O)Nc2cccc(-c3ccc(-c4nc5cc(F)ccc5[nH]4)cc3)c2)s1`
OUTPUT: 94

INPUT: Kindly indicate its recorded Inhibition. Item: `Cc1cc2nc(-c3ccc(C(=O)NCCCc4ccccc4)cc3)[nH]c2cc1C`
OUTPUT: 91

INPUT: Kindly indicate its recorded Inhibition. Item: `O=C(O)C(F)(F)F.c1cc(-c2ccc(CNC3CC3)cc2)cc(-c2nc3ccccc3[nH]2)c1`
OUTPUT: 96

INPUT: Kindly indicate its recorded Inhibition. Item: `Nc1ncc(-c2ccsc2)c2ccc(-c3cc(NCc4ccccc4)ncn3)cc12`
OUTPUT: 100

INPUT: Kindly indicate its recorded Inhibition. Item: `Cc1sc(CNCCCNc2cc(=O)c3ccccc3[nH]2)c(C(F)(F)F)c1C.Cl`
OUTPUT: 99

INPUT: Kindly indicate its recorded Inhibition. Item: `Clc1ccccc1CCNCC1CCN(CC2CCCCC2)CC1.O=C(O)C(F)(F)F`
OUTPUT: 97

INPUT: Kindly indicate its recorded Inhibition. Item: `COc1cccc(CNC[C@@H](O)[C@H](Cc2ccccc2)NC(=O)c2cc(C(C)C)cc(N3CCCC3=O)c2)c1`
OUTPUT: 95

Now consider a different compound.
INPUT: Kindly indicate its recorded Inhibition. Item: COc1cc(NC(=O)N2CCOC(CCN3CCC4(CCc5ccccc54)CC3)(c3ccc(Cl)c(Cl)c3)C2)cc(OC)c1OC (stereo unspecified)
OUTPUT: 94

###

test system: HepG2; test: GSK_TCMDC: Percent inhibition of human HepG2 cell line. Test compounds present at 10uM.; format: functional
EXPERIMENTAL READOUT: Inhibition
Report as: number unit

Consider the worked cases shown below.
INPUT: Kindly indicate its recorded Inhibition. Item: `COc1cc(Cc2cnc(N)nc2N)ccc1OCc1ccc(NC(C)=O)cc1`
OUTPUT: 9%

INPUT: Kindly indicate its recorded Inhibition. Item: `O=C(Nc1cccc(-c2nn3ccccc3c2-c2ccnc(Nc3cccc(C(F)(F)F)c3)n2)c1)c1c(F)cccc1F`
OUTPUT: 43%

INPUT: Kindly indicate its recorded Inhibition. Item: `FC(F)(F)c1ccc2[nH]ccc(=NN=Cc3cccnc3)c2c1`
OUTPUT: 0%

INPUT: Kindly indicate its recorded Inhibition. Item: CCCCCCNC(=O)C1Cc2c([nH]c3ccc(C)cc23)C2(CCN(CCc3ccccc3)CC2)N1 (stereo not given)
OUTPUT: 31%

INPUT: Kindly indicate its recorded Inhibition. Item: `COc1ccc(NC(=O)Nc2ccc(C)c(-c3ccc(C(=O)NCCN4CCCC4)cc3)c2)cc1`
OUTPUT: 18%

Now consider a different molecule.
INPUT: Kindly indicate its recorded Inhibition. Item: `Cc1cc(-c2ccc(CNCc3ccsc3)cc2)ccc1S(=O)(=O)NCCN1CCCC1.O=C(O)C(F)(F)F`
OUTPUT: 57%

###

tested on: HepG2; test: GSK_TCMDC: Percent inhibition of human HepG2 cell line. Test compounds present at 10uM.; format: functional
Below, each of the compounds is paired with its reported Inhibition value.
Just the number in %, nothing appended.

INPUT: Kindly indicate its recorded Inhibition. Item: `O=C(c1ccc([N+](=O)[O-])o1)N1CCC(c2cn(Cc3cccc(F)c3)c3ccccc23)CC1`
OUTPUT: 1

***
INPUT: Kindly indicate its recorded Inhibition. Item: `Cc1cccc(NC(=O)N(Cc2cc3cc(C)cc(C)c3[nH]c2=O)C2CC2)c1`
OUTPUT: 3

INPUT: Kindly indicate its recorded Inhibition. Item: Brc1cc(Br)c2c(c1)C(NCCCNC1CCNc3c(Br)cc(Br)cc31)CCN2 (stereo not given)
OUTPUT: 18

INPUT: Kindly indicate its recorded Inhibition. Item: CC(=O)c1cccc2cc(C(=O)NC3CCC(CCN4CCc5ccc(C#N)cc5C4)CC3)[nH]c12.Cl (stereo not given)
OUTPUT: 12

INPUT: Kindly indicate its recorded Inhibition. Item: `COc1ccc(-c2cccc(NC(=O)c3ccc(Cl)cc3)c2)cc1CN1CCCC1.O=C(O)C(F)(F)F`
OUTPUT: 55

INPUT: Kindly indicate its recorded Inhibition. Item: `O=C(Nc1cccnc1)c1cn(-c2ccccc2)nc1-c1cccs1`
OUTPUT: 3

INPUT: Kindly indicate its recorded Inhibition. Item: `Cc1cc(CNCCCCCNCc2ccc(Cl)cc2)ccc1O`
OUTPUT: 12

INPUT: Kindly indicate its recorded Inhibition. Item: O=C(NC1CCCCC1)c1csc(C2CCCN(C(=O)c3ccc(O)c(-c4cccc(C(F)(F)F)c4)c3)C2)n1 (stereo not given)
OUTPUT: 8

INPUT: Kindly indicate its recorded Inhibition. Item: `CC(C)(C)c1ccc(S(=O)(=O)Nc2cc(Cl)ccc2Cn2ccc(N3CCNCC3)nc2=O)cc1.O=C(O)C(F)(F)F`
OUTPUT: 0

INPUT: Kindly indicate its recorded Inhibition. Item: `CN/C(=C\[N+](=O)[O-])NCCSCc1cc(C)c(CN(C)C)s1`
OUTPUT: 48

INPUT: Kindly indicate its recorded Inhibition. Item: CC(C)(C)c1ccc(CN2CCC(CNC(=O)c3cc(-c4cccc(C(F)(F)F)c4)cs3)C2)cc1.O=C(O)C(F)(F)F (stereo not given)
OUTPUT: 80

###

tested on: HepG2; experiment: GSK_TCMDC: Percent inhibition of human HepG2 cell line. Test compounds present at 10uM.; assay type: functional
EXPERIMENTAL READOUT: Inhibition (%)
Just the number in %, nothing appended.

INPUT: Kindly indicate its recorded Inhibition. Item: `Cc1ccc(NC(=O)c2ccc(CN3CCCN(Cc4cccc(O)c4)CC3)cc2)cc1F.O=C(O)C(F)(F)F`
OUTPUT: 48

INPUT: Kindly indicate its recorded Inhibition. Item: CC1(C)C2C=C(CN3CCC(NC(=O)Nc4ccc(Cl)c(Cl)c4)CC3)C1CC2 (centres undefined)
OUTPUT: 28

INPUT: Kindly indicate its recorded Inhibition. Item: `CC(C)n1ncc2c3c(N)nc(N)nc3ccc21`
OUTPUT: 64

INPUT: Kindly indicate its recorded Inhibition. Item: CC(C)N1CCN(C(CN2CCN(CCCOc3ccc4ccccc4c3)CC2)c2ccc(F)cc2)CC1.Cl (centres undefined)
OUTPUT: 59

INPUT: Kindly indicate its recorded Inhibition. Item: `CCCN(CCC)CCCNc1ccc(C(=O)Nc2ccc(OCC)cc2)cc1[N+](=O)[O-]`
OUTPUT: 7

***
INPUT: Kindly indicate its recorded Inhibition. Item: COc1cc(NCC(O)CNc2cc(Cl)nc3ccccc23)nc2ccccc12 (centres undefined)
OUTPUT: 17

INPUT: Kindly indicate its recorded Inhibition. Item: `Cc1ccc2[nH]c(-c3ccccc3)cc(=NN=Cc3cccnc3)c2c1`
OUTPUT: 12

INPUT: Kindly indicate its recorded Inhibition. Item: `COc1ccc(NC(=O)CSc2nc(-c3ccccc3Cl)ns2)cc1OC`
OUTPUT: 0

###

system: Plasmodium falciparum; experiment: GSK_TCMDC: Inhibition of Plasmodium falciparum 3D7 in whole red blood cells, using parasite LDH activity as an index of growth. Test compounds present at 2uM; format: functional
EXPERIMENTAL READOUT: Inhibition (%)
Just the number in %, nothing appended.

Consider the worked cases shown below.
INPUT: Kindly indicate its recorded Inhibition. Item: `CCNc1cc(C)nc(Nc2ccc(NC(=O)c3ccccc3Cl)cc2)n1`
OUTPUT: 100

INPUT: Kindly indicate its recorded Inhibition. Item: `COc1ccc(CN(C)CCCc2ccc(NC(=O)c3cccc4c(=O)c5cccc(F)c5[nH]c34)cc2)cc1OC`
OUTPUT: 100

INPUT: Kindly indicate its recorded Inhibition. Item: COc1ccc2nccc(N(C)CC3(O)CCC(NCc4ccc5c(n4)NC(=O)CS5)CC3)c2n1.Cl (stereo not given)
OUTPUT: 98

INPUT: Kindly indicate its recorded Inhibition. Item: `Cc1cccc(NC(=O)Nc2ccc(I)c(OCCN(C)C)c2)c1C`
OUTPUT: 96

INPUT: Kindly indicate its recorded Inhibition. Item: `O=C(Nc1ccc(Cl)cc1)c1ccc(CN2CCCN(Cc3ccccc3)CC2)cc1.O=C(O)C(F)(F)F`
OUTPUT: 96

INPUT: Kindly indicate its recorded Inhibition. Item: `Cl.Clc1ccc(CNCCCCCCCNCc2ccc(Cl)c(Cl)c2)cc1Cl`
OUTPUT: 99

INPUT: Kindly indicate its recorded Inhibition. Item: `CN1CCN(c2ccnc3ccc(NC(=O)Nc4ccc(-c5ccccc5)cc4)cc23)CC1`
OUTPUT: 99

INPUT: Kindly indicate its recorded Inhibition. Item: O=C(c1ccc(F)c(F)c1)N1CCOC(CCN2CCC(c3ccccc3)CC2)(c2ccc(Cl)c(Cl)c2)C1 (stereo not given)
OUTPUT: 89

***
INPUT: Kindly indicate its recorded Inhibition. Item: `CCCCCCCc1c(C)nc2ccccc2c1O`
OUTPUT: 98

INPUT: Kindly indicate its recorded Inhibition. Item: `CN1CCN(CCCN(Cc2cccc(-c3cccc(CNCc4ccc5c(c4)OCO5)c3)c2)C(=O)CCC2CCCC2)CC1.O=C(O)C(F)(F)F`
OUTPUT: 98

INPUT: Kindly indicate its recorded Inhibition. Item: `CO/C(=C\C=C\c1cc2cc(Cl)c(Cl)cc2[nH]1)C(=O)NC1CCN(CCCc2ccccc2)CC1`
OUTPUT: 93

INPUT: Kindly indicate its recorded Inhibition. Item: `O=C(Nc1ccc(-c2ccccc2)cc1)Nc1cccc(Cn2ncc(N3CCCNCC3)c(Cl)c2=O)c1`
OUTPUT: 100

INPUT: Kindly indicate its recorded Inhibition. Item: `COc1ccc(OCc2ccccn2)c(C2CCN(CCCCNC(=O)c3ccc(NC(=O)c4ccc(Cl)cc4)cc3)CC2)c1.Cl`
OUTPUT: 98

INPUT: Kindly indicate its recorded Inhibition. Item: `O=C(NCC1CCN(CCN2CCc3ccc4c(c3C2)OCO4)CC1)c1ccc(-c2ccc(C(F)(F)F)cc2)cc1`
OUTPUT: 93

INPUT: Kindly indicate its recorded Inhibition. Item: Cc1cc(C(=O)Nc2ccc3c(c2)CCN3C2CCN(Cc3ccc4nsnc4c3)C2)no1 (stereo not given)
OUTPUT: 90

INPUT: Kindly indicate its recorded Inhibition. Item: `CCCCOc1cc2c(cc1OCC)C(C=Cc1ccc(Cl)cc1Cl)=NCC2.Cl`
OUTPUT: 97

INPUT: Kindly indicate its recorded Inhibition. Item: `Cc1nnsc1C(=O)Nc1cccc(-c2ccc(-c3nc4cc(F)ccc4[nH]3)s2)c1`
OUTPUT: 89

INPUT: Kindly indicate its recorded Inhibition. Item: `COc1ccc(-c2cccc(NC(=O)c3cccs3)c2)cc1CN1CCCN(C)CC1.O=C(O)C(F)(F)F`
OUTPUT: 100

INPUT: Kindly indicate its recorded Inhibition. Item: Cl.Cn1cnc(-c2ccc3c(c2)CCN(CCC2CCC(NC(=O)/C=C/c4ccc(F)cc4)CC2)CC3)c1 (stereo not given)
OUTPUT: 90

INPUT: Kindly indicate its recorded Inhibition. Item: `CCCCCOc1ccc(N2C(N)=NC(N)=NC2(C)C)cc1.Cl`
OUTPUT: 97

INPUT: Kindly indicate its recorded Inhibition. Item: `COc1ccc2nc(Nc3nc(-c4ccccn4)cs3)sc2c1`
OUTPUT: 93

INPUT: Kindly indicate its recorded Inhibition. Item: `O=C(NCc1cccc(C(F)(F)F)c1)[C@@H]1CCCN1C(=O)c1ccc(O)c(-c2ccc(Cl)c(Cl)c2)c1`
OUTPUT: 99
